A collection of compounds and their measured λabs
Assay: Absorption and fluorescence properties in water
Format: physicochemical
Field format: number, assumed nm, no unit text.

Example compounds with recorded λabs:
Compound	λabs / nm
CC1(C)C(/C=C/c2ccccc2[N+](=O)[O-])=Nc2ccc3ccccc3c21 [Compound 3p]	434
CC1(C)C(/C=C/c2cc(C(F)(F)F)cc(C(F)(F)F)c2)=Nc2ccc3ccccc3c21 [Compound 3b]	400
CC1(C)C(/C=C/c2cccc3ccccc23)=Nc2ccc3ccccc3c21 [Compound 3o]	445
CC1(C)C(/C=C/c2ccc(F)c([N+](=O)[O-])c2)=Nc2ccc3ccccc3c21 [Compound 3i]	399
CC1(C)C(/C=C/c2ccc(F)cc2)=Nc2ccc3ccccc3c21 [Compound 3d]	430

# get_value(readout='λabs', item= CC1(C)C(/C=C/c2ccc(C#N)c(F)c2)=Nc2ccc3ccccc3c21 [Compound 3g] ) 433

Using the record for CC1(C)C(/C=C/c2ccc(Cl)c([N+](=O)[O-])c2)=Nc2ccc3ccccc3c21 [Compound 3h] , report its λabs. 426

Reported λabs, compound COc1ccc(/C=C/C2=Nc3ccc4ccccc4c3C2(C)C)cc1[N+](=O)[O-] [Compound 3f] : ____ 403

* * *

Below: a set of entries, each annotated with reported λem.
Assay: Absorption and fluorescence properties in water
Format: physicochemical
Conditions: excitation wavelength 380 nm
Experimental: To determine the wavelength of light, at which 1,1-dimethyl-2-[(E)-2-phenylethenyl]-1H-benzo[e]indole derivatives should be irradiated for the investigation of their photodynamic activity, the absorption and fluorescence properties thereof were measured in water. The excitation wavelength λex was set to 380 nm. […]
Give a bare numeral; the unit nm is implied.

Worked set:
Compound	Unit annotation	λem
CC1(C)C(/C=C/c2ccccc2)=Nc2ccc3ccccc3c21 [Compound 3a]	nm	530
Cc1ccc(/C=C/C2=Nc3ccc4ccccc4c3C2(C)C)cc1[N+](=O)[O-] [Compound 3k]	nm	523
CC1(C)C(/C=C/c2ccc(C#N)c(F)c2)=Nc2ccc3ccccc3c21 [Compound 3g]	nm	535
CC1(C)C(/C=C/c2ccc3ccccc3c2)=Nc2ccc3ccccc3c21 [Compound 3l]	nm	523
CC1(C)C(/C=C/c2ccc(Cl)c([N+](=O)[O-])c2)=Nc2ccc3ccccc3c21 [Compound 3h]	nm	532

Name the reported λem value associated with the compound CC1(C)C(/C=C/c2ccc(F)cc2)=Nc2ccc3ccccc3c21 [Compound 3d] 532

Would you kindly share the measured λem for CC1(C)C(/C=C/c2ccc(F)c([N+](=O)[O-])c2)=Nc2ccc3ccccc3c21 [Compound 3i] ? 525

For the compound shown here, CC1(C)C(/C=C/c2cc(C(F)(F)F)cc(C(F)(F)F)c2)=Nc2ccc3ccccc3c21 [Compound 3b] , give the reported λem. 509

* * *

Test: Absorption and fluorescence properties in water
Format: physicochemical
Response field label takes y when Stokes shift is strictly below 100 nm and n in all other cases.

Chemical smiles	Group
CC1(C)C(/C=C/c2cccc3ccccc23)=Nc2ccc3ccccc3c21	n
CC1(C)C(/C=C/c2ccc(F)c([N+](=O)[O-])c2)=Nc2ccc3ccccc3c21	n
CC1(C)C(/C=C/c2ccc(F)c(C#N)c2)=Nc2ccc3ccccc3c21	n
CC1(C)C(/C=C/c2ccc(C(F)(F)F)cc2)=Nc2ccc3ccccc3c21	n
CC1(C)C(/C=C/c2ccccc2)=Nc2ccc3ccccc3c21	n

Lab log: compare recorded Stokes shift with 100 nm; is it strictly lower for CC1(C)C(/C=C/c2ccccc2[N+](=O)[O-])=Nc2ccc3ccccc3c21 ? n

# TODO verify Stokes shift < 100 nm strictly for this compound: CC1(C)C(/C=C/c2cccc([N+](=O)[O-])c2)=Nc2ccc3ccccc3c21 y

Here's an entry: CC1(C)C(/C=C/c2ccc(Cl)c([N+](=O)[O-])c2)=Nc2ccc3ccccc3c21 . Is its Stokes shift below 100 nm? n
